For each entry below, report its total protein half-life in vivo value.
Test: total protein half-life in vivo (active degradation + dilution); higher = more stable protein
Settings: wild type E. coli NCM3722; growth: N-lim chemostat; doubling time 12 h
All answers are understood in h, so give the number only.

Prompt: Look at this sequence and give its reported total protein half-life in vivo. MSDERYQQRQQRVKEKVDARVAQAQDERGIIIVFTGNGKGKTTAAFGTATRAVGHGKKVGVVQFIKGTWPNGERNLLEPHGVEFQVMATGFTWDTQNRESDTAACREVWQHAKRMLADSSLDMVLLDELTYMVAYDYLPLEEVVQALNERPHQQTVIITGRGCHRDILELADTVSELRPVKHAFDAGVKAQIGIDY [P0A9H5]
Completion: 6.63

Prompt: Quick one: MKPGCTLFFLLCSALTVTTEAHAQTPDTATTAPYLLAGAPTFDLSISQFREDFNSQNPSLPLNEFRAIDSSPDKANLTRAASKINENLYASTALERGTLKIKSIQMTWLPIQGPEQKAAKAKAQEYMAAVIRTLTPLMTKTQSQKKLQSLLTAGKNKRYYTETEGALRYVVADNGEKGLTFAVEPIKLALSESLEGLNK
Completion: 8.35

Prompt: Quick one: MLIRVEIPIDAPGIDALLRRSFESDAEAKLVHDLREDGFLTLGLVATDDEGQVIGYVAFSPVDVQGEDLQWVGMAPLAVDEKYRGQGLARQLVYEGLDSLNEFGYAAVVTLGDPALYSRFGFELAAHHDLRCRWPGTESAFQVHRLADDALNGVTGLVEYHEHFNRF
Completion: 7.82

Prompt: Quick one: MIEFVYPHTQLVAGVDEVGRGPLVGAVVTAAVILDPARPIAGLNDSKKLSEKRRLALYEEIKEKALSWSLGRAEPHEIDELNILHATMLAMQRAVAGLHIAPEYVLIDGNRCPKLPMPAMAVVKGDSRVPEISAASILAKVTRDAEMAALDIVFPQYGFAQHKGYPTAFHLEKLAEHGATEHHRRSFGPVKRALGLAS
Completion: 1.91

Prompt: Quick one: MQFDWSAIWPAIPLLIEGAKMTLWISVLGLAGGLVIGLLAGFARTFGGWIANHVALVFIEVIRGTPIVVQVMFIYFALPMAFNDLRIDPFTAAVVTIMINSGAYIAEITRGAVLSIHKGFREAGLALGLSRWETIRYVILPLALRRMLPPLGNQWIISIKDTSLFIVIGVAELTRQGQEIIAGNFRALEIWSAVAVFYLIITLVLSFILRRLERRMKIL [P0AEQ6]
Completion: 11.4

Prompt: Quick one: MKPSSSNSRSKGHAKARRKTREELDQEARDRKRQKKRRGHAPGSRAAGGNTTSGSKGQNAPKDPRIGSKTPIPLGVTEKVTKQHKPKSEKPMLSPQAELELLETDERLDALLERLEAGETLSAEEQSWVDAKLDRIDELMQKLGLSYDDDEEEEEDEKQEDMMRLLRGN [P0A8H6]
Completion: 5.58

Prompt: Quick one: MDLNTLISQYGYAALVIGSLAEGETVTLLGGVAAHQGLLKFPLVVLSVALGGMIGDQVLYLCGRRFGGKLLRRFSKHQDKIERAQKLIQRHPYLFVIGTRFMYGFRVIGPTLIGASQLPPKIFLPLNILGAFAWALIFTTIGYAGGQVIAPWLHNLDQHLKHWVWLILVVVLVVGVRWWLKRRGKKKPDHQA
Completion: 10.9

----------
Assay: total protein half-life in vivo (active degradation + dilution); higher = more stable protein
Settings: E. coli NCM3722 delta-clpP delta-lon delta-hslV; growth: N-lim chemostat; doubling time 6 h
MEASUREMENT KIND: total protein half-life in vivo (h)
All answers are understood in h, so give the number only.

Prompt: Look at this sequence and give its reported total protein half-life in vivo. MMMGEVQSLPSAGLHPALQDALTLALAARPQEKAPGRYELQGDNIFMNVMTFNTQSPVEKKAELHEQYIDIQLLLNGEERILFGMAGTARQCEEFHHEDDYQLCSTIDNEQAIILKPGMFAVFMPGEPHKPGCVVGEPGEIKKVVVKVKADLMA
Completion: 5.11

Prompt: Quick one: MMVIRPVERSDVSALMQLASKTGGGLTSLPANEATLSARIERAIKTWQGELPKSEQGYVFVLEDSETGTVAGICAIEVAVGLNDPWYNYRVGTLVHASKELNVYNALPTLFLSNDHTGSSELCTLFLDPDWRKEGNGYLLSKSRFMFMAAFRDKFNDKVVAEMRGVIDEHGYSPFWQSLGKRFFSMDFSRADFLCGTGQKAFIAELMPKHPIYTHFLSQEAQDVIGQVHPQTAPARAVLEKEGFRYRNYIDIFDGGPTLECDIDRVRAIRKSRLVEVAEGQPAQGDFPACLVANENYHHFRVVLVRTDPATERLILTAAQLDALKCHAGDRVRLVRLCAEEKTA [P0AE37]
Completion: 5.43

Prompt: Quick one: MWKRLLIVSAVSAAMSSMALAAPLTVGFSQVGSESGWRAAETNVAKSEAEKRGITLKIADGQQKQENQIKAVRSFVAQGVDAIFIAPVVATGWEPVLKEAKDAEIPVFLLDRSIDVKDKSLYMTTVTADNILEGKLIGDWLVKEVNGKPCNVVELQGTVGASVAIDRKKGFAEAIKNAPNIKIIRSQSGDFTRSKGKEVMESFIKAENNGKNICMVYAHNDDMVIGAIQAIKEAGLKPGKDILTGSIDGVPDIYKAMMDGEANASVELTPNMAGPAFDALEKYKKDGTMPEKLTLTKSTLYLPDTAKEELEKKKNMGY
Completion: 5.47

Prompt: Quick one: MDKQSLHETAKRLALELPFVELCWPFGPEFDVFKIGGKIFMLSSELRGVPFINLKSDPQKSLLNQQIYPSIKPGYHMNKKHWISVYPGEEISEALLRDLINDSWNLVVDGLAKRDQKRVRPG [P0AAT2]
Completion: 5.54

Prompt: Quick one: MIDFGNFYSLIAKNHLSHWLETLPAQIANWQREQQHGLFKQWSNAVEFLPEIKPYRLDLLHSVTAESEEPLSAGQIKRIETLMRNLMPWRKGPFSLYGVNIDTEWRSDWKWDRVLPHLSDLTGRTILDVGCGSGYHMWRMIGAGAHLAVGIDPTQLFLCQFEAVRKLLGNDQRAHLLPLGIEQLPALKAFDTVFSMGVLYHRRSPLEHLWQLKDQLVNEGELVLETLVIDGDENTVLVPGDRYAQMRNVYFIPSALALKNWLKKCGFVDIRIADVSVTTTEEQRRTEWMVTESLADFLDPHDPGKTVEGYPAPKRAVLIARKP
Completion: 5.27

Prompt: Quick one: MHTSELLKHIYDINLSYLLLAQRLIVQDKASAMFRLGINEEMATTLAALTLPQMVKLAETNQLVCHFRFDSHQTITQLTQDSRVDDLQQIHTGIMLSTRLLNDVNQPEEALRKKRA [P0A8S9]
Completion: 6.51

Prompt: Quick one: MTDNNTALKKAGLKVTLPRLKILEVLQEPDNHHVSAEDLYKRLIDMGEEIGLATVYRVLNQFDDAGIVTRHNFEGGKSVFELTQQHHHDHLICLDCGKVIEFSDDSIEARQREIAAKHGIRLTNHSLYLYGHCAEGDCREDEHAHEGK [P0A9A9]
Completion: 6.49

Prompt: Quick one: MKLTIIRLEKFSDQDRIDLQKIWPEYSPSSLQVDDNHRIYAARFNERLLAAVRVTLSGTEGALDSLRVREVTRRRGVGQYLLEEVLRNNPGVSCWWMADAGVEDRGVMTAFMQALGFTAQQGGWEKC
Completion: 4.23

Prompt: Quick one: MKKNQFLKESDVTAESVFFMKRRQVLKALGISATALSLPHAAHADLLSWFKGNDRPPAPAGKALEFSKPAAWQNNLPLTPADKVSGYNNFYEFGLDKADPAANAGSLKTDPWTLKISGEVAKPLTLDHDDLTRRFPLEERIYRMRCVEAWSMVVPWIGFPLHKLLALAEPTSNAKYVAFETIYAPEQMPGQQDRFIGGGLKYPYVEGLRLDEAMHPLTLMTVGVYGKALPPQNGAPVRLIVPWKYGFKGIKSIVSIKLTRERPPTTWNLAAPDEYGFYANVNPYVDHPRWSQATERFIGSGGILDVQRQPTLLFNGYAAQVASLYRGLDLRENF
Completion: 4.84

Prompt: Quick one: MMKTMRIAAIPGDGIGKEVLPEGIRVLQAAAERWGFALSFEQMEWASCEYYSHHGKMMPDDWHEQLSRFDAIYFGAVGWPDTVPDHISLWGSLLKFRREFDQYVNLRPVRLFPGVPCPLAGKQPGDIDFYVVRENTEGEYSSLGGRVNEGTEHEVVIQESVFTRRGVDRILRYAFELAQSRPRKTLTSATKSNGLAISMPYWDERVEAMAENYPEIRWDKQHIDILCARFVMQPERFDVVVASNLFGDILSDLGPACTGTIGIAPSANLNPERTFPSLFEPVHGSAPDIYGKNIANPIATIWAGAMMLDFLGNGDERFQQAHNGILAAIEEVIAHGPKTPDMKGNATTPQVADAICKIILR
Completion: 4.1

Prompt: Quick one: MKVLTVFGTRPEAIKMAPLVHALAKDPFFEAKVCVTAQHREMLDQVLKLFSIVPDYDLNIMQPGQGLTEITCRILEGLKPILAEFKPDVVLVHGDTTTTLATSLAAFYQRIPVGHVEAGLRTGDLYSPWPEEANRTLTGHLAMYHFSPTETSRQNLLRENVADSRIFITGNTVIDALLWVRDQVMSSDKLRSELAANYPFIDPDKKMILVTGHRRESFGRGFEEICHALADIATTHQDIQIVYPVHLNPNVREPVNRILGHVKNVILIDPQEYLPFVWLMNHAWLILTDSGGIQEEAPSLGKPVLVMRDTTERPEAVTAGTVRLVGTDKQRIVEEVTRLLKDENEYQAMSRAHNPYGDGQACSRILEALKNNRISL
Completion: 4.18
